# System: Streptococcus pneumoniae 49619 (SPN 49619)
# experimental_details: Minimum Inhibitory Concentration (MIC) determination, agar with 5% sheep blood
# Type: cell-based
# condition_set: Mueller Hinton agar containing 5% sheep blood
For each of the compounds below, state its MIC.
One number for each entry, in µg/mL.

- CC(=O)NC[C@H]1CN(c2ccc(N3CCC4(CC3)SCCN4C)c(F)c2)C(=O)O1 [Example 113]: 2
- CC(=O)NC[C@H]1CN(c2ccc(N3CCC(F)(CNS(C)(=O)=O)CC3)c(F)c2)C(=O)O1 [Example 7]: 1

Please report MIC for every entry that follows.
1. COCC1(O)CCN(c2ccc(N3C[C@H](CNC(C)=O)OC3=O)cc2F)CC1 [Example 33]
2. CS(=O)(=O)OC[C@H]1CN(c2ccc(N3CCC(=O)CC3)c(F)c2)C(=O)O1 [Example 168]
3. CC(=O)NC[C@H]1CN(c2ccc(N3CCC(F)(CO)CC3)c(F)c2)C(=O)O1 [Example 9]

1: 2; 2: 4; 3: 2

Working through the 2 compounds below one at a time, give MIC for each.
1. C=CCC1(O)CCN(c2ccc(N3C[C@H](COS(C)(=O)=O)OC3=O)cc2F)CC1 [Example 41]
2. CC(=O)NC[C@H]1CN(c2ccc(N3CCC(F)(F)CC3)c(F)c2)C(=O)O1 [Example 16]

16
2

// each compound listed below needs its MIC
1. CC(=O)NC[C@H]1CN(c2ccc(N3CCC4(CC3)NCC[S+]4[O-])c(F)c2)C(=O)O1 (stereo partly shown) [Example 112]
2. CC(=O)NC[C@H]1CN(c2ccc(N3CCC4(CC3)COCCCO4)c(F)c2)C(=O)O1 [Example 164]
3. CC(=O)NC[C@H]1CN(c2ccc(N3CCC(O)(C#N)CC3)c(F)c2)C(=O)O1 [Example 19]
4. CC(=O)NC[C@H]1CN(c2ccc(N3CCC4(CC3)CC4C#N)cc2)C(=O)O1 (mixture of isomers) [Example 96]
5. CC(=O)NC[C@H]1CN(c2ccc(N3CCC(F)(CNC(C)=O)CC3)c(F)c2)C(=O)O1 [Example 6]
6. CC(=O)NC[C@H]1CN(c2ccc(N3CCC4(CC3)C[S+]([O-])CCO4)c(F)c2)C(=O)O1 (stereo partly shown) [Example 162]
7. CC(=O)NC[C@H]1CN(c2cc(F)c(N3CCC(O)(CN=[N+]=[N-])CC3)c(F)c2)C(=O)O1 [Example 186]

[2, 4, 4, 4, 2, 4, 1]

Query (compound): CS(=O)(=O)OC[C@H]1CN(c2cc(F)c(N3CCC4(CC3)OCCO4)c(F)c2)C(=O)O1 [Example 146] ; field requested: MIC 4
